Just for reference, patent US20230143345A1 is where these values come from.

For each record, write down the corresponding Cell viability (%, average ± standard deviation).
# Test system: Vero cell lines
# ASSAY_METHOD_TEXT: Cell viability of Vero cells in the SARS-CoV-2 inhibition experiment (Example 2)
# CONDITION_SET: concentration 12.5 uM
Answers are plain numbers, in %.

// solved cases for Cell viability (%, average ± standard deviation) follow
CCN(CC)CCCC(C)Nc1ccnc2cc(Cl)ccc12 (stereo not shown) [Chloroquine]
83.63
COc1cc2cc3c(c(-c4cc5c(cc4O)OCO5)c2cc1OC)C(=O)OC3 [6′ hydroxyl justicidin-B]
101.11

Here are 2 compounds. What values of Cell viability (%, average ± standard deviation) were reported for them?
1. COc1cc2c(OC)c3c(c(-c4ccc5c(c4)OCO5)c2cc1OC)C(=O)OC3 [Justicidin-A]
2. COc1cc2cc3c(c(-c4ccc5c(c4)OCO5)c2cc1OC)C(=O)OC3 [Justicidin-B]

96.5
90.01

---

# ASSAY_METHOD_TEXT: Cell viability of VERO cells by WST-1 assay (Example 3)
# CONDITION_SET: African green monkey
READOUT_LABEL: CC50 at 48 h (µM)
Answers are plain numbers, in µM.

Which CC50 at 48 h value belongs to CCN(CCO)CCCC(C)Nc1ccnc2cc(Cl)ccc12 (stereo not shown) [Hydroxy-chloroquine, reference compound] ? 160

---

# Tested on: VERO cells
# ASSAY_METHOD_TEXT: Cell viability of VERO cells by WST-1 assay (Example 3)
# CONDITION_SET: read-out: 50% cell viability inhibitory concentration (CC50 value); VERO cells, WST-1 assay
READOUT_LABEL: CC50

Tell me reported CC50 for COc1cc2cc3c(c(-c4ccc5c(c4)OCO5)c2cc1OC)C(=O)OC3 , tested with VERO cells. > 800 µM

---

# System: SARS-CoV-2
# ASSAY_METHOD_TEXT: microbe, parasite or virus in culture
# Assay type: cell-based
# CONDITION_SET: Severe acute respiratory syndrome coronavirus 2, Vero, 24 h, read-out: SARS-CoV-2 virus 50% inhibitory ability (IC50 value), Vero cells dosed while being infected, 24 h; compounds
READOUT_LABEL: IC50 (µM)
Numbers only, in µM.

Cc1cccc(C)c1OCC(=O)N[C@@H](Cc1ccccc1)[C@@H](O)C[C@H](Cc1ccccc1)NC(=O)[C@H](C(C)C)N1CCCNC1=O [Lopinavir]
12.6

We now examine a further compound.
Consider the compound shown here: CCN(CC)CCCC(C)Nc1ccnc2cc(Cl)ccc12 (centres unmarked) [Chloroquine] What is its recorded IC50? 8.78

---

Please provide measured Cell viability (%, average ± standard deviation) for the entries that follow.
# Tested on: Vero cell lines
# ASSAY_METHOD_TEXT: Cell viability of Vero cells in the SARS-CoV-2 inhibition experiment (Example 2)
# CONDITION_SET: concentration 0.39 uM
One number for each entry, in %.

COc1cc2c(OC)c3c(c(-c4ccc5c(c4)OCO5)c2cc1OC)C(=O)OC3
101.3

Value sought for every listed molecule: Cell viability (%, average ± standard deviation).
1. CCN(CC)CCCC(C)Nc1ccnc2cc(Cl)ccc12 (stereo not shown)
2. COc1cc2cc3c(c(-c4cc5c(cc4O)OCO5)c2cc1OC)C(=O)OC3 [6′ hydroxyl justicidin-B]
3. COc1cc2cc3c(c(-c4ccc5c(c4)OCO5)c2cc1OC)C(=O)OC3

1: 83.14; 2: 105.17; 3: 107.70
